assayedSystem: CYP2C9 (Homo sapiens, UniProt P11712)
Construct: human liver microsomes (0.25 mg/mL); from tissue; host or cells: human liver microsomes
Sequence (P11712 whole entry): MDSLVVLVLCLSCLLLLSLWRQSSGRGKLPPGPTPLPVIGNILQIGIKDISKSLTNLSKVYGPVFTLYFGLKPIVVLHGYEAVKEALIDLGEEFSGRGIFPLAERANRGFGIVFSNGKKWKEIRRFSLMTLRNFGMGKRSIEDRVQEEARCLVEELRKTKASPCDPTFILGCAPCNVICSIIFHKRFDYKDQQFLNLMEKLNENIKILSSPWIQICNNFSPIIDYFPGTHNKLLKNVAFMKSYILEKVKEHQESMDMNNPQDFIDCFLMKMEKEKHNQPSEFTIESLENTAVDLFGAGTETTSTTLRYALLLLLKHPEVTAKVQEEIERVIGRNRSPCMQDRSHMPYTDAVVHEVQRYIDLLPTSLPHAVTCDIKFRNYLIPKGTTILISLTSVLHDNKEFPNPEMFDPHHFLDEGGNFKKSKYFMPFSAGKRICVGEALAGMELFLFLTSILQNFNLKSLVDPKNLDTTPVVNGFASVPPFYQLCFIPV
methodNotes: CYP isoenzyme activity inhibition in human liver microsomes, CYP2C9
Type: in vitro ADME
conditionDescription: 10 µM compound; human liver microsomes 0.25 mg/mL; relative to control without compound
Experimental: The CYP isoenzyme activity inhibitory effect by the compounds prepared according to Examples 1 to 46 was confirmed. […] The metabolites of each CYP isoenzyme marker drug generated through the reaction were analyzed using a Shimadzu Nexera XR system and TSQ vantage (Thermo). […] The generated metabolites were quantified using MRM (Multiple Reaction Monitoring) quantitative mode, and Xcalibur (version 1.6.1) was used for data analysis. […]
Label Met for high-side CYP2C9 (% activity) (at or above 80 % activity) and Not met for low-side CYP2C9 (% activity) (below it).

compound: CC1CN(c2nc3ccc(NN=C(C#N)C#N)cc3s2)CCO1 (stereo not shown)
assayedSystem: CYP2C9 (Homo sapiens, UniProt P11712)
labelValue: Not met
//
compound: N#CC(C#N)=NNc1ccc2nc(NC(=O)N3CCOCC3)sc2c1
assayedSystem: CYP2C9 (Homo sapiens, UniProt P11712)
labelValue: Not met
//
compound: CC(=O)N1CCN(c2nc3ccc(NN=C(C#N)C#N)cc3s2)CC1
assayedSystem: CYP2C9 (Homo sapiens, UniProt P11712)
labelValue: Met
//
compound: CC(=O)N1CCN(c2nc3ccc(NN=C(C#N)C#N)cc3o2)CC1
assayedSystem: CYP2C9 (Homo sapiens, UniProt P11712)
labelValue: Met
//
compound: CC1CN(c2nc3ccc(NN=C(C#N)C#N)cc3o2)CC(C)O1 (stereo not shown)
assayedSystem: CYP2C9 (Homo sapiens, UniProt P11712)
labelValue: Met
//
compound: CC1COCCN1c1nc2ccc(NN=C(C#N)C#N)cc2o1 (stereo not shown)
assayedSystem: CYP2C9 (Homo sapiens, UniProt P11712)
labelValue: Met
//
compound: Cn1c(N2C3CCC2COC3)nc2cc(NN=C(C#N)C#N)ccc21
assayedSystem: CYP2C9 (Homo sapiens, UniProt P11712)
labelValue: Met
//
compound: N#CC(C#N)=NNc1ccc2nc(N3CCNCC3)oc2c1
assayedSystem: CYP2C9 (Homo sapiens, UniProt P11712)
labelValue: Met
//
compound: CC1CN(c2nc3ccc(NN=C(C#N)C#N)cc3o2)CCO1 (stereo not shown)
assayedSystem: CYP2C9 (Homo sapiens, UniProt P11712)
labelValue: Met
//
compound: CCn1c(N2CCOCC2)nc2ccc(NN=C(C#N)C#N)cc21
assayedSystem: CYP2C9 (Homo sapiens, UniProt P11712)
labelValue: Not met

All values here come from patent EP4737445A1.
